Values compiled from ChEMBL document CHEMBL4364293.

Provide the reported clearance of each item.
assay: Clearance in Sprague-Dawley rat at 2 mg/kg, iv by non-compartmental analysis; assay type: ADME, organism-based; settings: in vivo
Reply with a number, then the unit it belongs to.

Query: # input compound: `COc1cccc(-c2cccc(NC(=O)CCc3cccc4c3B(O)OC4)c2)c1` ; wanted: its clearance
Result: 62.5 mL/min/kg

Query: // lookup clearance for `CC(=O)c1ccc(-c2cccc(NC(=O)CCc3cccc4c3B(O)OC4)c2)cc1`
Result: 17.5 mL/min/kg

---

assay: AUC infinity in Sprague-Dawley rat at 10 mg/kg, po by non-compartmental analysis; assay type: ADME, organism-based; parameters: dose 10 mg/kg, time infinity, route oral; details: in vivo
Give AUC(0-inf) for every item shown.
Enter your answer as a number in ng·h/mL; do not include the unit.

Query: Given the entry `CC(=O)c1ccc(-c2cccc(NC(=O)CCc3cccc4c3B(O)OC4)c2)cc1` , report its measured AUC(0-inf).
Result: 459

Query: Given `COc1cccc(-c2cccc(NC(=O)CCc3cccc4c3B(O)OC4)c2)c1` , state its recorded AUC(0-inf).
Result: 547

---

assay: AUC infinity in Sprague-Dawley rat at 2 mg/kg, iv by non-compartmental analysis; type: ADME, organism-based; parameters: dose 2 mg/kg, time infinity, route intravenous; details: in vivo
Give AUC(0-inf) for every item shown.
Your answer should be a plain number; it is taken to be in ng·h/mL.

Query: Which AUC(0-inf) value belongs to `COc1cccc(-c2cccc(NC(=O)CCc3cccc4c3B(O)OC4)c2)c1` ?
Result: 551

Query: Reported AUC(0-inf), compound `CC(=O)c1ccc(-c2cccc(NC(=O)CCc3cccc4c3B(O)OC4)c2)cc1` : ____
Result: 1920

---

Answer each item with its documented selectivity ratio.
assay: Selectivity ratio, ratio of IC50 for human WI38 cells to IC50 for human SKOV3 cells; type: toxicity; conditions: WI38 cells versus SKOV3 cells, read-out: Ratio IC50

Query: GET /values?readout=selectivity ratio&item= `O=C(CCc1cccc2c1B(O)OC2)Nc1cccc(-c2ccc(F)cc2)c1`
Result: 44

Query: What selectivity ratio value was documented for this compound, `CC(=O)c1ccc(-c2cccc(NC(=O)CCc3cccc4c3B(O)OC4)c2)cc1` ?
Result: 180

Query: # lookup: selectivity ratio of `COc1cccc(-c2cccc(NC(=O)CCc3cccc4c3B(O)OC4)c2)c1`
Result: 100

Query: Could you share which selectivity ratio value was measured for `O=C(CCc1cccc2c1B(O)OC2)Nc1ccccc1` ?
Result: 150

---

For each record, write down the corresponding half-life.
assay: Half-life in Sprague-Dawley rat at 10 mg/kg, po by non-compartmental analysis; format: ADME, organism-based; conditions: in vivo
Include the unit right after the number.

Query: Requested field: half-life. Item: `CC(=O)c1ccc(-c2cccc(NC(=O)CCc3cccc4c3B(O)OC4)c2)cc1`
Result: 120 min

Query: Could you share which half-life value was measured for `COc1cccc(-c2cccc(NC(=O)CCc3cccc4c3B(O)OC4)c2)c1` ?
Result: 132 min

---

For each record, write down the corresponding half-life.
assay: Half-life in Sprague-Dawley rat at 2 mg/kg, iv by non-compartmental analysis; format: ADME, organism-based; settings: in vivo
Write the value in h as a bare number.

Query: Quick one: half-life for `CC(=O)c1ccc(-c2cccc(NC(=O)CCc3cccc4c3B(O)OC4)c2)cc1` ?
Result: 0.6

Query: # half-life lookup, item `COc1cccc(-c2cccc(NC(=O)CCc3cccc4c3B(O)OC4)c2)c1`
Result: 1.4
